Numbers sourced from ChEMBL document CHEMBL1133765.

assay: physchem
Description: Ionization constant (pKa)
Binary classification by pKa, with 9 as an inclusive lower bound for met; all other cases are not met.

Sample answers from the record:
                                   compound    class
0    CN1CCN(CCCN2c3ccccc3Sc3ccc(Cl)cc32)CC1  not met
1  CCOC(=O)Nc1ccc2c(c1)N(C(=O)CCN1CCOCC1)c1ccccc1S2  not met
2    CNCCC[C@]12CC[C@H](c3ccccc31)c1ccccc12      met
3  CC(C)n1c(/C=C/C(O)CC(O)CC(=O)O)c(-c2ccc(F)cc2)c2ccccc21 (stereo unspecified)  not met
4  CC(C)(C)NCC(O)c1cc(Cl)c(N)c(C(F)(F)F)c1 (stereo unspecified)      met
5  COc1cccc(C2(O)CCCCC2CN(C)C)c1 (stereo unspecified)      met

### Prompt I'd appreciate it if you could say whether `Nc1nc2ccc(OC(F)(F)F)cc2s1` has pKa at least equal to 9.
### Response not met

### Prompt I'd appreciate it if you could say whether CCNCC(O)c1cccc(O)c1 (stereo unspecified) has pKa at least equal to 9.
### Response met

### Prompt I'd appreciate it if you could say whether COc1ccc2[nH]c([S+]([O-])Cc3ncc(C)c(OC)c3C)nc2c1 (stereo unspecified) has pKa at least equal to 9.
### Response not met

### Prompt I'd appreciate it if you could say whether `C1COC(NC(C2CC2)C2CC2)=N1` has pKa at least equal to 9.
### Response met

### Prompt I'd appreciate it if you could say whether COc1ccc(CCNCC(O)COc2cccc(C)c2)cc1OC (stereo unspecified) has pKa at least equal to 9.
### Response not met

### Prompt I'd appreciate it if you could say whether `C[C@H](CS)C(=O)N1C[C@@H](Sc2ccccc2)C[C@H]1C(=O)O` has pKa at least equal to 9.
### Response not met

### Prompt I'd appreciate it if you could say whether N#Cc1ccccc1OCC(O)CNCCNC(=O)Cc1ccc(O)cc1 (stereo unspecified) has pKa at least equal to 9.
### Response not met

### Prompt I'd appreciate it if you could say whether `CNS(=O)(=O)Cc1ccc2[nH]cc(CCN(C)C)c2c1` has pKa at least equal to 9.
### Response met
